# pIC50 values compiled below
Molecular target: CIB1 and αIIb interaction (CIB1-GST : F-αIIb peptide) (Homo sapiens, UniProt Q99828)
Construct: made in house; host or cells: BL-21 plus RIL cells (E. coli)
Assay: FP assay, 1536-well qHTS format (primary and confirmatory screen)
Type: binding
Settings: qHTS primary screen hits, Table S2; read-out: IC50
pIC50: −log10 of the molar value.
recorded.endpoint: pIC50

| molecule | assayed.target | observed.value |
| --- | --- | --- |
| COc1cccc2c1C(=O)c1c(O)c3c(c(O)c1C2=O)C[C@@](O)(C(=O)CO)C[C@@H]3O[C@H]1C[C@H](N)[C@@H](O)[C@H](C)O1 [NCGC00263918-04] | CIB1 and αIIb interaction (CIB1-GST : F-αIIb peptide) (Homo sapiens, UniProt Q99828) | 4.73 |
| O=C(O)C(F)(F)F.O=C(O)c1ccc(-c2ccc3ncnc(N4CCOCC4)c3c2)o1 [NCGC00229619-01] | CIB1 and αIIb interaction (CIB1-GST : F-αIIb peptide) (Homo sapiens, UniProt Q99828) | 5.40 |
| CC[C@@]1(O)C(=O)OCc2c1cc1n(c2=O)Cc2cc3c(CN(C)C)c(O)ccc3nc2-1 [NCGC00014925-07] | CIB1 and αIIb interaction (CIB1-GST : F-αIIb peptide) (Homo sapiens, UniProt Q99828) | 4.61 |

====

Biological target: CIB1 and αIIb interaction (CIB1-GST : F-αIIb peptide) (Homo sapiens, UniProt Q99828)
Construct: made in house; host or cells: BL-21 plus RIL cells (E. coli)
Sequence (Q99828 1-191): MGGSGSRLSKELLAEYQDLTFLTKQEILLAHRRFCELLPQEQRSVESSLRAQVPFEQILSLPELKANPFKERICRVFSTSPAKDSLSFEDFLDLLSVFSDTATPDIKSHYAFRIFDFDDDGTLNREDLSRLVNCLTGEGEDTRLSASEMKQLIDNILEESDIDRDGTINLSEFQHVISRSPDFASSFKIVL
Test: FP assay, 1536-well qHTS format (primary and confirmatory screen)
Type: binding
Settings: qHTS primary screen of LOPAC/NPACT libraries; negative = inhibition
Some compounds, each annotated with its measured Efficacy (%).
recorded.endpoint: Efficacy (%)

| compound | assayed.target | unit | observed.value |
| --- | --- | --- | --- |
| Ic1ccccc1CNC1C2CCN(CC2)C1C(c1ccccc1)c1ccccc1.O=C(O)C(=O)O (stereo not drawn) | CIB1 and αIIb interaction (CIB1-GST : F-αIIb peptide) (Homo sapiens, UniProt Q99828) | % | -20 |
| NC(=O)c1cc[n+](CC2=C(C(=O)O)N3C(=O)[C@@H](NC(=O)[C@@H](c4ccccc4)S(=O)(=O)[O-])[C@H]3SC2)cc1 | CIB1 and αIIb interaction (CIB1-GST : F-αIIb peptide) (Homo sapiens, UniProt Q99828) | % | -20 |
| O=C(/C=C/c1ccccc1)OC[C@H]1O[C@@H](OC(=O)c2cc(O)c(O)c(O)c2)[C@H](O)[C@@H](O)[C@@H]1O | CIB1 and αIIb interaction (CIB1-GST : F-αIIb peptide) (Homo sapiens, UniProt Q99828) | % | -20 |
